All values here come from paper PMC10138723.

Test system: U251 (human glioma cells)
Assay: CCK-8 cytotoxic assay, U251
Format: cell-based
Settings: U-251, 24 h, read-out: IC50 ± SD, U251
recorded-endpoint: IC50

Q: Suppose we examine the compound C=C1C(=O)OC2CC3C4CC=C5CC(OC6OC(CO)C(O)C(O)C6OC6OC(C)C(O)C(O)C6O)CCC5(C)C4CCC3(C)C12 (stereo not shown) [Compound 6, pallidifloside D] ; what IC50 value has been reported?
Result: > 50 µM

* * *

Below: a set of entries, each annotated with reported pIC50.
System: LN229 (human glioma cells)
Assay: CCK-8 cytotoxic assay, LN229
Assay type: cell-based
Conditions: LN-229, LN229 cells, CCK-8, 24 h, read-out: IC50 ± SD, LN229
Source text: U251 (human glioma cells), HeLa (human cervical cancer cells), and HepG2 (human hepatic cancer cells) were purchased from the Chinese Academy of Sciences (China), and Capan-2 (human pancreatic cancer cells) were obtained from Nanjing Cobioer Biosicences (Nanjing, China). American Type Culture Collection (ATCC) provided LN229 (human glioma cells). […]
pIC50: −log10 of the molar value.

Please review the following examples before continuing.
COc1cccc2c1C(=O)c1c(O)c3c(c(O)c1C2=O)C[C@@](O)(C(=O)CO)C[C@@H]3O[C@H]1C[C@H](N)[C@H](O)[C@H](C)O1 [Doxorubicin, reference compound]: 6.46
Cc1c(CCC(C)COC2OC(CO)C(O)C(O)C2O)ccc2c1C1(C)CCC3C(CC=C4CC(OC5OC(CO)C(OC6OC(C)C(O)C(O)C6O)C(O)C5OC5OC(C)C(O)C(O)C5O)CCC43C)C1C2 (stereo not shown) [Compound 9, aethioside A]: < 4.30
Cc1c(CCC(C)COC2OC(CO)C(O)C(O)C2O)ccc2c1C1(C)CCC3C(CC=C4CC(OC5OC(CO)C(O)C(O)C5OC5OC(C)C(O)C(O)C5O)CCC43C)C1C2 (stereo not shown) [Compound 12, parispseudoside B]: < 4.30

Q: Suppose we examine the compound Cc1c(CCC(C)COC2OC(CO)C(O)C(O)C2O)ccc2c1C1(C)CCC3C(CC=C4CC(OC5OC(CO)C(OC6OC(C)C(OC7OC(C)C(O)C(O)C7O)C(O)C6O)C(O)C5OC5OC(C)C(O)C(O)C5O)CCC43C)C1C2 (stereo not shown) [Compound 7, parispseudoside A] ; what pIC50 value has been reported?
Result: < 4.30
